These data points were gathered from patent US20210292393A1.

Documented median fold over isotype across a set of binders
assayed.target: SARS-CoV-2 full length spike protein, D614G mutant (SARS-CoV-2, UniProt P0DTC2 14-1273)
Write the value in fold over isotype as a bare number.

binder	median fold over isotype / fold over isotype
antibody 552 (antibody, V domains shown) VH: QVQLVQSGAEVKKPGSSVKVSCKASGGTFSSYGISWVRQAPGQGLEWMGRIIPILGIANYAQKFQGRVTITADKSTSTAYMELSSLRSEDTAVYYCARAVYAAGDDDYYYYYGMDVWGQGTTVTVSS VL: SYELTQPPSVSVSPGQTARITCSGDALPKQYAYWYQQKPGQAPVVVIYKDSDRPSGIPERFSGSSSGTTVTLTISGVQAEDEADYYCQSADSSGTYQVFGTGTKVSVL	23.5

Q. Entry antibody 530 (antibody, V domains shown) VH: EVQLVESGGGLVQPGGSLRLSCAASGFTFSSYWMSWVRQAPGKGLEWVANIKQDGSEKYYVDSVKGRFTISRDNAKNSLYLQMNSLRAEDTAVYYCAREPQLWSEYYFDYWGQGTLVTVSS VL: DIQMTQSPSSLSASVGDRVTITCRASQGISSWLAWYQQKPEKAPKSLIYAASSLQSGVPSRFSGSGSGTDFTLTISSLQPEDFATYYCQQYNSYPPTFGQGTRLEIK has what median fold over isotype?
A. 8.68

Q. // next record antibody 529 (antibody, V domains shown) VH: QVQLVQSGAEVKKPGASVKVSCKASGYTFTSYGISWVRQAPGQGLEWMGWISAYNGNTNYAQKLQGRVTMTTDTSTSTAYMELRSLRSDDTAVYYCARMLIAAAGTSRDYYGMDVWGQGTTVTVSS VL: EIVLTQSPDFQSVTPKEKVTITCRASQSIGSSLHWYQQKPDQSPKLLIKYASQSFSGVPSRFSGSGSGTDFTLTINSLEAEDAATYYCHQSSSLPHTFGGGTKVEIK
A. 0.77
